All figures here come from ChEMBL document CHEMBL1140164.

Documented inhibition across a set of compounds
- Tgt: UniProt P06276
- Assay Procedure: Inhibition of human plasma BuchE at 100 uM by Ellman's method
- Assay type: cell-free
Value Kind: inhibition (%)

- Chem Smiles: "O=C(NC1CCCCC1)O[C@H]1CO[C@H]2[C@@H]1OC[C@H]2O[N+](=O)[O-]"
  Reported Result: 99
- Chem Smiles: "O=C(Nc1cccc(Cl)c1)O[C@H]1CO[C@H]2[C@@H]1OC[C@H]2O[N+](=O)[O-]"
  Reported Result: 11
- Chem Smiles: "Cc1ccc(S(=O)(=O)C(=O)O[C@@H]2CO[C@H]3[C@@H]2OC[C@@H]3OC(=O)NCc2ccccc2)cc1"
  Reported Result: 25
- Chem Smiles: "CS(=O)(=O)OC(=O)O[C@@H]1CO[C@H]2[C@@H]1OC[C@@H]2OC(=O)NCc1ccccc1"
  Reported Result: 9.8
- Chem Smiles: "O=C(NCc1ccccc1)O[C@H]1CO[C@H]2[C@@H]1OC[C@H]2O[N+](=O)[O-]"
  Reported Result: 96
- Chem Smiles: "O=C(NCc1ccccc1)O[C@H]1CO[C@H]2[C@@H]1OC[C@H]2OC(=O)c1cccnc1"
  Reported Result: 99
- Chem Smiles: "O=C(Nc1ccc(Cl)c(Cl)c1)O[C@H]1CO[C@H]2[C@@H]1OC[C@H]2O[N+](=O)[O-]"
  Reported Result: 28
- Chem Smiles: "CC(=O)O[C@@H]1CO[C@H]2[C@@H]1OC[C@@H]2OC(=O)NCc1ccccc1"
  Reported Result: 97
- Chem Smiles: "O=C(NCc1ccccc1)O[C@H]1CO[C@H]2[C@@H]1OC[C@H]2O"
  Reported Result: 95

---

- Tgt: Acetylcholinesterase (Electrophorus electricus)
- Assay Procedure: Inhibition of electric eel AchE at 100 uM by Ellman's method

- Chem Smiles: "Cc1ccc(S(=O)(=O)C(=O)O[C@@H]2CO[C@H]3[C@@H]2OC[C@@H]3OC(=O)NCc2ccccc2)cc1"
  inhibition, %: 66
- Chem Smiles: "CCCCNC(=O)O[C@H]1CO[C@H]2[C@@H]1OC[C@H]2O[N+](=O)[O-]"
  inhibition, %: 32
- Chem Smiles: "CNC(=O)O[C@H]1CO[C@H]2[C@@H]1OC[C@H]2O[N+](=O)[O-]"
  inhibition, %: 67
- Chem Smiles: "O=C(NCc1ccccc1)O[C@H]1CO[C@H]2[C@@H]1OC[C@H]2OC(=O)C1CC1"
  inhibition, %: 55
- Chem Smiles: "O=C(/C=C/c1ccc(O)cc1)O[C@@H]1CO[C@H]2[C@@H]1OC[C@@H]2OC(=O)NCc1ccccc1"
  inhibition, %: 81
- Chem Smiles: "O=C(Nc1ccccc1)O[C@H]1CO[C@H]2[C@@H]1OC[C@H]2O[N+](=O)[O-]"
  inhibition, %: 23
- Chem Smiles: "O=C(Nc1cccc(C(F)(F)F)c1)O[C@H]1CO[C@H]2[C@@H]1OC[C@H]2O[N+](=O)[O-]"
  inhibition, %: 12
- Chem Smiles: "CCC(=O)O[C@@H]1CO[C@H]2[C@@H]1OC[C@@H]2OC(=O)NCc1ccccc1"
  inhibition, %: 5

---

- Tgt: Acetylcholinesterase (Electrophorus electricus)
- Assay Procedure: Inhibition of electric eel AchE at 100 uM by Ellman's method
Documented inhibition across a set of compounds
Value Kind: inhibition (%)

- Chem Smiles: "CC(=O)O[C@@H]1CO[C@H]2[C@@H]1OC[C@@H]2OC(=O)NCc1ccccc1"
  Value Kind: "inhibition"
  Unit Name: "%"
  Reported Result: 12
- Chem Smiles: "O=C(NCc1ccccc1)O[C@H]1CO[C@H]2[C@@H]1OC[C@H]2O"
  Value Kind: "inhibition"
  Unit Name: "%"
  Reported Result: 15
- Chem Smiles: "CCCCC(=O)O[C@@H]1CO[C@H]2[C@@H]1OC[C@@H]2OC(=O)NCc1ccccc1"
  Value Kind: "inhibition"
  Unit Name: "%"
  Reported Result: 4
- Chem Smiles: "O=C(Nc1ccc(Cl)c(Cl)c1)O[C@H]1CO[C@H]2[C@@H]1OC[C@H]2OC(=O)c1ccccc1"
  Value Kind: "inhibition"
  Unit Name: "%"
  Reported Result: 70

---

- Tgt: Cholinesterase (Homo sapiens)
- Assay Procedure: Inhibition of human plasma BuchE at 100 uM by Ellman's method
- Format: cell-free
Decision: inhibition >= 90% yields yes (1), all other cases yield no (0).

- Compound: "CNC(=O)O[C@H]1CO[C@H]2[C@@H]1OC[C@H]2O[N+](=O)[O-]"
  Class Label: "no (0)"
- Compound: "CCNC(=O)O[C@H]1CO[C@H]2[C@@H]1OC[C@H]2O[N+](=O)[O-]"
  Class Label: "no (0)"
- Compound: "O=C(NCc1ccccc1)O[C@H]1CO[C@H]2[C@@H]1OC[C@H]2OC(=O)C1CCCC1"
  Class Label: "yes (1)"
- Compound: "O=C(Nc1ccccc1)O[C@H]1CO[C@H]2[C@@H]1OC[C@H]2O[N+](=O)[O-]"
  Class Label: "no (0)"
- Compound: "O=C(NCc1ccccc1)O[C@H]1CO[C@H]2[C@@H]1OC[C@H]2OC(=O)c1ccncc1"
  Class Label: "yes (1)"
- Compound: "O=C(NCc1ccccc1)O[C@H]1CO[C@H]2[C@@H]1OC[C@H]2OC(=O)c1ccc(-c2ccccc2)cc1"
  Class Label: "yes (1)"
- Compound: "CCC(C)NC(=O)O[C@H]1CO[C@H]2[C@@H]1OC[C@H]2OC(=O)c1ccccc1 (stereo partly drawn)"
  Class Label: "yes (1)"
- Compound: "CCCNC(=O)O[C@H]1CO[C@H]2[C@@H]1OC[C@H]2O[N+](=O)[O-]"
  Class Label: "yes (1)"
- Compound: "O=C(NCc1ccccc1)O[C@H]1CO[C@H]2[C@@H]1OC[C@H]2OC(=O)c1cccc2ccccc12"
  Class Label: "yes (1)"
- Compound: "O=C(NCc1ccccc1)O[C@H]1CO[C@H]2[C@@H]1OC[C@H]2OC(=O)c1ccccc1"
  Class Label: "yes (1)"
- Compound: "CNC(=O)O[C@H]1CO[C@H]2[C@@H]1OC[C@H]2OC(=O)c1ccccc1"
  Class Label: "yes (1)"
- Compound: "CCC(=O)O[C@@H]1CO[C@H]2[C@@H]1OC[C@@H]2OC(=O)NCc1ccccc1"
  Class Label: "yes (1)"

---

- Tgt: Cholinesterase (Homo sapiens, UniProt P06276)
- Sequence (P06276 whole entry): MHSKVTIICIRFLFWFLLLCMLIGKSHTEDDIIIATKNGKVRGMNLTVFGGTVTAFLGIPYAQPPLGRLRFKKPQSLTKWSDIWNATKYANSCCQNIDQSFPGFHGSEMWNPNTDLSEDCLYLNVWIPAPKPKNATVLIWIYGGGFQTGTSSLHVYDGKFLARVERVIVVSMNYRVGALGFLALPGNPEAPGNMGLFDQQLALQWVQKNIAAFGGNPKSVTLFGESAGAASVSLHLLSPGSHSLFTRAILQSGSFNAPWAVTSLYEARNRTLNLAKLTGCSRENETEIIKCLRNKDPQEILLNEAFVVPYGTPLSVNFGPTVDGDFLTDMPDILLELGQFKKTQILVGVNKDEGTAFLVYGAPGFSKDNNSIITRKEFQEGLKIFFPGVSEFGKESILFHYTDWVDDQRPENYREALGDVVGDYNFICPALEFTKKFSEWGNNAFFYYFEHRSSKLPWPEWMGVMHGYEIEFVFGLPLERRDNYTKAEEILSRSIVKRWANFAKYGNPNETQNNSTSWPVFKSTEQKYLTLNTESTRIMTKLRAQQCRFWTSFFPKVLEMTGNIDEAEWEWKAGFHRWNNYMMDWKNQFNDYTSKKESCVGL
- Assay Procedure: Inhibition of human plasma BuchE at 100 uM by Ellman's method
- Type: cell-free
Documented inhibition across a set of compounds
Value Kind: inhibition (%)

- Chem Smiles: "O=C(Nc1ccccc1Cl)O[C@H]1CO[C@H]2[C@@H]1OC[C@H]2O[N+](=O)[O-]"
  Tgt: "Cholinesterase (Homo sapiens, UniProt P06276)"
  Value Kind: "inhibition"
  Reported Result: 11
- Chem Smiles: "O=C(Nc1cccc(C(F)(F)F)c1)O[C@H]1CO[C@H]2[C@@H]1OC[C@H]2O[N+](=O)[O-]"
  Tgt: "Cholinesterase (Homo sapiens, UniProt P06276)"
  Value Kind: "inhibition"
  Reported Result: 10
- Chem Smiles: "O=C(NCc1ccccc1)O[C@H]1CO[C@H]2[C@@H]1OC[C@H]2OC(=O)C1CC1"
  Tgt: "Cholinesterase (Homo sapiens, UniProt P06276)"
  Value Kind: "inhibition"
  Reported Result: 97
- Chem Smiles: "CCCCC(=O)O[C@@H]1CO[C@H]2[C@@H]1OC[C@@H]2OC(=O)NCc1ccccc1"
  Tgt: "Cholinesterase (Homo sapiens, UniProt P06276)"
  Value Kind: "inhibition"
  Reported Result: 95
- Chem Smiles: "O=C(NCc1ccccc1)O[C@H]1CO[C@H]2[C@@H]1OC[C@H]2OC(=O)c1ccc2ccccc2c1"
  Tgt: "Cholinesterase (Homo sapiens, UniProt P06276)"
  Value Kind: "inhibition"
  Reported Result: 100
- Chem Smiles: "O=C(/C=C/c1ccccc1)O[C@@H]1CO[C@H]2[C@@H]1OC[C@@H]2OC(=O)NCc1ccccc1"
  Tgt: "Cholinesterase (Homo sapiens, UniProt P06276)"
  Value Kind: "inhibition"
  Reported Result: 96
- Chem Smiles: "O=C(Nc1ccc(Cl)c(Cl)c1)O[C@H]1CO[C@H]2[C@@H]1OC[C@H]2OC(=O)c1ccccc1"
  Tgt: "Cholinesterase (Homo sapiens, UniProt P06276)"
  Value Kind: "inhibition"
  Reported Result: 38
- Chem Smiles: "O=C(/C=C/c1ccc(O)cc1)O[C@@H]1CO[C@H]2[C@@H]1OC[C@@H]2OC(=O)NCc1ccccc1"
  Tgt: "Cholinesterase (Homo sapiens, UniProt P06276)"
  Value Kind: "inhibition"
  Reported Result: 100

---

- Assay Procedure: Selectivity ratio of IC50 for electric eel AchE to IC50 for human plasma BuchE

- Chem Smiles: "O=C(NCc1ccccc1)O[C@H]1CO[C@H]2[C@@H]1OC[C@H]2OC(=O)c1ccccc1"
  Operator: "="
  Ratio IC50: 63300
- Chem Smiles: "CC(=O)O[C@@H]1CO[C@H]2[C@@H]1OC[C@@H]2OC(=O)NCc1ccccc1"
  Operator: ">"
  Ratio IC50: 25
- Chem Smiles: "O=C(NCc1ccccc1)O[C@H]1CO[C@H]2[C@@H]1OC[C@H]2O[N+](=O)[O-]"
  Operator: ">"
  Ratio IC50: 2000
- Chem Smiles: "O=C(/C=C/c1ccccc1)O[C@@H]1CO[C@H]2[C@@H]1OC[C@@H]2OC(=O)NCc1ccccc1"
  Operator: "="
  Ratio IC50: 729
- Chem Smiles: "CNC(=O)O[C@H]1CO[C@H]2[C@@H]1OC[C@H]2OC(=O)c1ccccc1"
  Operator: "="
  Ratio IC50: 150
- Chem Smiles: "O=C(NCc1ccccc1)O[C@H]1CO[C@H]2[C@@H]1OC[C@H]2OC(=O)C1CCCC1"
  Operator: "="
  Ratio IC50: 9380
- Chem Smiles: "CCC(=O)O[C@@H]1CO[C@H]2[C@@H]1OC[C@@H]2OC(=O)NCc1ccccc1"
  Operator: ">"
  Ratio IC50: 100
- Chem Smiles: "CCCCNC(=O)O[C@H]1CO[C@H]2[C@@H]1OC[C@H]2O[N+](=O)[O-]"
  Operator: "="
  Ratio IC50: 1610
- Chem Smiles: "CCCNC(=O)O[C@H]1CO[C@H]2[C@@H]1OC[C@H]2O[N+](=O)[O-]"
  Operator: "="
  Ratio IC50: 2380
- Chem Smiles: "O=C(NC1CCCCC1)O[C@H]1CO[C@H]2[C@@H]1OC[C@H]2O[N+](=O)[O-]"
  Operator: ">"
  Ratio IC50: 40
